Please provide measured glycan array binding signal (z-score) for the entries that follow.
# Test Target: Fuc(a1-2)Gal(b1-3)GalNAc(a1-3)[Fuc(a1-2)]Gal(b1-4)Glc
# Protocol Notes: glycan array binding signal (z-score within array); higher = stronger binding
# Test Conditions: glycan notation: IUPAC condensed, linker removed
Only a selection was taken, and the strongest signals are over-represented in it overall.
One number for each entry.

>>> numeric_value("rCnSL-A (Clitocybe nebularis) (protein) VNPNLPGPNDVFVGFRGTNNIVGAIYEKDGIKDTPLNNGADAEMGPGSYITDGLFTARIFASGSAGNNPGTTATVCKIYASGVQWRGAPKGYIPVAYFGNGPTAEQRRQTYLRTLGLPGTAIRFGNLNTNPGQGPTAPRQMVVPPGPLRSLLKASCFPAADTRLPQTLHYFEKRVDWNIITAADSQTWGH")
-0.137

So what does the record say about glycan array binding signal (z-score) for ABA (Agaricus bisporus), Q00022 (protein) MTYTISIRVYQTTPKGFFRPVERTNWKYANGGTWDEVRGEYVLTMGGSGTSGSLRFVSSDTDESFVATFGVHNYKRWCDIVTNLTNEQTALVINQEYYGVPIRDQARENQLTSYNVANAKGRRFAIEYTVTEGDNLKANLIIG ?
-0.201
